Numbers sourced from a melting point compilation (Tetko et al.; mined from patent text by program, amines drawn as free bases though some values may be those of a salt).

measurement-name: melting point

Incoming: Entry CCCCCC(CCCCC)=NN=C1NC(=O)C(CC(=O)O)S1 (stereo not given) : reported melting point = ?
Outgoing: 134 to 135 °C

Incoming: What do you get for `COCCn1nc2ccccc2c1C(=O)NCC1CCN(CCc2ccccc2F)CC1` ?
Outgoing: 128 to 130 °C

Incoming: What do you get for `CN1CCN(c2nc(C=C3SC(=S)N(CC(=O)O)C3=O)cs2)CC1` ?
Outgoing: > 300 °C

Incoming: What do you get for COc1ccc(S(=O)(=O)N(CCO)c2ccc(Cl)cc2C(O)c2ccccc2Cl)cc1OC (stereo not given) ?
Outgoing: 86.2 °C

Incoming: What do you get for CCCNCCC1Cc2ccc(C3=NNC(=O)CC3)cc2C1 (stereo not given) ?
Outgoing: 123 to 124 °C

----------
Entries annotated with measured melting point

// below: answered compounds
Incoming: Entry `Cc1cnc(Br)c(F)c1` : reported melting point = ?
Outgoing: 32 to 33 °C

Incoming: What do you get for Cc1c(-c2ccc(O)cc2)n(Cc2ccc(OCCN3CCCCC3C)cc2)c2ccc(O)cc12 (stereo unspecified) ?
Outgoing: 121 to 123 °C

Incoming: What do you get for `COc1nc(C)c(C)nc1NC(=O)N1CCN(c2cc(F)cc(F)c2)CC1` ?
Outgoing: 153 to 154 °C

Incoming: What do you get for `CCn1c(C(O)(C2CCCCC2)C2CCCCC2)nc(-c2ccncc2)c1-c1ccc(Cl)cc1` ?
Outgoing: 221 to 224 °C

Incoming: What do you get for `CC(C)N1CC2CC(CN(C(=O)c3ccc(Cl)cc3)C2)C1` ?
Outgoing: 97 to 98 °C

***
Incoming: Entry `COC(=O)NNC(=S)Cc1ccc(OC)cc1` : reported melting point = ?
Outgoing: 94.5 to 95 °C

Incoming: What do you get for `O=S(=O)(NN1CCCCC1)c1ccc(S)cc1` ?
Outgoing: 93 °C

Incoming: What do you get for `Cc1ccc(C(=O)NC2CCN(CCCCl)CC2)cc1` ?
Outgoing: 150 to 152 °C

Incoming: What do you get for `COc1ccc(-c2nc(-c3cccn3CC(=O)OC(C)C)sc2-c2ccc(OC)cc2)cc1` ?
Outgoing: 130 to 133 °C

Incoming: What do you get for `CN1CCN(CCn2c3ccccc3c(=O)c3ccccc32)CC1` ?
Outgoing: 156 to 157 °C

Incoming: What do you get for CCC(=O)SCC(Cc1ccccc1)C(=O)Nc1cccc(C(=O)O)c1C (stereo unspecified) ?
Outgoing: 163 to 165 °C

----------
Entries annotated with measured melting point

Incoming: Entry `C=C(C)OC(=O)N1C(=O)[C@H](C)Nc2cc(Cl)ccc21` : reported melting point = ?
Outgoing: 158 to 159 °C

Incoming: What do you get for `CC(C)c1ccc(S(=O)(=O)n2c(Cc3ccc(C(=O)O)s3)cc3cc(C(F)(F)F)ccc32)cc1` ?
Outgoing: 199 to 216 °C

Incoming: What do you get for `CS(=O)(=O)Nc1ccc(OCCBr)c(Cl)c1` ?
Outgoing: 96 to 98 °C

Incoming: What do you get for `C=CCc1ccc(O)c(-c2cc(CC=C)ccc2O)c1` ?
Outgoing: 101 to 103 °C

Incoming: What do you get for COCC(C)Oc1cc(Oc2ccc(S(C)(=O)=O)nc2)cc2cc(C3=NCC(CCO)S3)[nH]c12 (stereo not given) ?
Outgoing: 138 to 139 °C

***
Incoming: Entry CN(C)Cc1ccc(CSCCNC2=NS(=O)N=C2N)o1 (stereo not given) : reported melting point = ?
Outgoing: 139 to 142 °C
